Reference source: ChEMBL document CHEMBL1221339

- assayed-target: CAAX prenyl protease 2 (Saccharomyces cerevisiae S288c) (UniProt Q03530)
- Sequence (Q03530 whole entry): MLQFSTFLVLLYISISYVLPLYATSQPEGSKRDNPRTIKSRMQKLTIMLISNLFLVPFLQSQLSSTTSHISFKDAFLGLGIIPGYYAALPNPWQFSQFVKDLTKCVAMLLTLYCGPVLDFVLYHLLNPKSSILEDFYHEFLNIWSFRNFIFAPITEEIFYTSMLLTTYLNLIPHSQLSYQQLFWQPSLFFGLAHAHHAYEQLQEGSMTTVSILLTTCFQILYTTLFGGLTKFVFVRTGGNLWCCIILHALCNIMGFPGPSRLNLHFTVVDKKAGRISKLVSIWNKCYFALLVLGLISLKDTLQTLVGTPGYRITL
- protocol-text: Inhibition of Saccharomyces cerevisiae SM3614 Ras converting enzyme 1 at 100 uM after 60 mins by fluorescence based proteolysis assay
Calls of active or inactive are those of the source. The calls are words filed in the database; no cut-off is given here.
Outcome codes: Yes (active), No (inactive)

smiles-notation: CC(C)(C)OC(=O)NCCCC[C@H](NC(=O)[C@H](Cc1ccccc1)NC(=O)OCc1ccccc1)C(=O)CBr
assayed-target: CAAX prenyl protease 2 (Saccharomyces cerevisiae S288c) (UniProt Q03530)
label: No
//
smiles-notation: N=C(N)NCCC[C@H](NC(=O)[C@H](Cc1ccccc1)NC(=O)OCc1ccccc1)C(=O)COC(=O)c1ccc([N+](=O)[O-])cc1
assayed-target: CAAX prenyl protease 2 (Saccharomyces cerevisiae S288c) (UniProt Q03530)
label: Yes
//
smiles-notation: NCCCC[C@H](NC(=O)[C@H](Cc1ccccc1)NC(=O)OCc1ccccc1)C(=O)O
assayed-target: CAAX prenyl protease 2 (Saccharomyces cerevisiae S288c) (UniProt Q03530)
label: No
//
smiles-notation: C[C@H](NC(=O)[C@H](Cc1ccccc1)NC(=O)OCc1ccccc1)C(=O)COC(=O)c1c(C(F)(F)F)cccc1C(F)(F)F
assayed-target: CAAX prenyl protease 2 (Saccharomyces cerevisiae S288c) (UniProt Q03530)
label: Yes
//
smiles-notation: Cc1cccc(C)c1C(=O)OCC(=O)[C@H](C)NC(=O)[C@H](Cc1ccccc1)NC(=O)OCc1ccccc1
assayed-target: CAAX prenyl protease 2 (Saccharomyces cerevisiae S288c) (UniProt Q03530)
label: Yes
//
smiles-notation: CC(=O)N[C@@H](Cc1ccc(O)cc1)C(=O)N[C@@H](Cc1ccccc1)C(=O)N[C@@H](CCCNC(=N)N)C(=O)COC(=O)c1c(C)cccc1C
assayed-target: CAAX prenyl protease 2 (Saccharomyces cerevisiae S288c) (UniProt Q03530)
label: No
//
smiles-notation: Cc1ccc(C(=O)OCC(=O)[C@H](CCCNC(=N)N)NC(=O)[C@H](Cc2ccccc2)NC(=O)OCc2ccccc2)cc1
assayed-target: CAAX prenyl protease 2 (Saccharomyces cerevisiae S288c) (UniProt Q03530)
label: Yes
//
smiles-notation: COc1ccc(C(=O)OCC(=O)[C@H](CCCNC(=N)N)NC(=O)[C@H](Cc2ccccc2)NC(=O)OCc2ccccc2)cc1
assayed-target: CAAX prenyl protease 2 (Saccharomyces cerevisiae S288c) (UniProt Q03530)
label: Yes
//
smiles-notation: Cc1ccc(C(=O)OCC(=O)[C@H](C)NC(=O)[C@H](Cc2ccccc2)NC(=O)OCc2ccccc2)cc1
assayed-target: CAAX prenyl protease 2 (Saccharomyces cerevisiae S288c) (UniProt Q03530)
label: Yes
//
smiles-notation: Cc1cccc(C)c1C(=O)OCC(=O)[C@H](CCCNC(=N)N)NC(=O)[C@H](Cc1ccccc1)NC(=O)OCc1ccccc1
assayed-target: CAAX prenyl protease 2 (Saccharomyces cerevisiae S288c) (UniProt Q03530)
label: Yes
//
smiles-notation: C[C@H](NC(=O)[C@H](Cc1ccccc1)NC(=O)OCc1ccccc1)C(=O)COC(=O)c1ccccc1
assayed-target: CAAX prenyl protease 2 (Saccharomyces cerevisiae S288c) (UniProt Q03530)
label: Yes
//
smiles-notation: N=C(N)NCCC[C@H](NC(=O)[C@H](Cc1ccccc1)NC(=O)OCc1ccccc1)C(=O)COC(=O)c1c(C(F)(F)F)cccc1C(F)(F)F
assayed-target: CAAX prenyl protease 2 (Saccharomyces cerevisiae S288c) (UniProt Q03530)
label: Yes

###

- Tested on: Saccharomyces cerevisiae
- protocol-text: Inhibition of Saccharomyces cerevisiae SM3614 Ras converting enzyme 1 Ste24 mutant at 100 uM after 60 mins by fluorescence based proteolysis assay
Activity calls are given as the source filed them. The calls are words filed in the database; no cut-off is given here.
Classes used: active, inactive

compound: CC(C)(C)OC(=O)NCCCC[C@H](NC(=O)[C@H](Cc1ccccc1)NC(=O)OCc1ccccc1)C(=O)CBr
label: inactive

compound: C[C@H](NC(=O)[C@H](Cc1ccccc1)NC(=O)OCc1ccccc1)C(=O)COC(=O)c1ccccc1
label: active

compound: NCCCC[C@H](NC(=O)[C@H](Cc1ccccc1)NC(=O)OCc1ccccc1)C(=O)O
label: inactive

compound: CC(=O)NC(Cc1ccc(O)cc1)C(=O)N[C@@H](Cc1ccccc1)C(=O)NCC(=O)COC(=O)c1c(C)cccc1C (single isomer, unassigned)
label: inactive

###

- System: Saccharomyces cerevisiae
- protocol-text: Inhibition of Saccharomyces cerevisiae SM3614 Ras converting enzyme 1 Ste24 mutant at 100 uM after 60 mins by fluorescence based proteolysis assay
The source made the active and inactive calls. The rule behind the calls is not given here.
Outcome codes: Y = active, N = inactive

smiles-notation: COc1ccc(C(=O)OCC(=O)[C@H](CCCNC(=N)N)NC(=O)[C@H](Cc2ccccc2)NC(=O)OCc2ccccc2)cc1
assayed-target: Saccharomyces cerevisiae
label: Y
--
smiles-notation: N=C(N)NCCC[C@H](NC(=O)[C@H](Cc1ccccc1)NC(=O)OCc1ccccc1)C(=O)COC(=O)c1ccccc1
assayed-target: Saccharomyces cerevisiae
label: Y
--
smiles-notation: Cc1cccc(C)c1C(=O)OCC(=O)[C@H](C)NC(=O)[C@H](Cc1ccccc1)NC(=O)OCc1ccccc1
assayed-target: Saccharomyces cerevisiae
label: Y
--
smiles-notation: Cc1ccc(C(=O)OCC(=O)[C@H](C)NC(=O)[C@H](Cc2ccccc2)NC(=O)OCc2ccccc2)cc1
assayed-target: Saccharomyces cerevisiae
label: Y
--
smiles-notation: N=C(N)NCCC[C@H](NC(=O)[C@H](Cc1ccccc1)NC(=O)OCc1ccccc1)C(=O)COC(=O)c1c(C(F)(F)F)cccc1C(F)(F)F
assayed-target: Saccharomyces cerevisiae
label: Y
--
smiles-notation: CC(=O)N[C@@H](Cc1ccc(O)cc1)C(=O)N[C@@H](Cc1ccccc1)C(=O)N[C@@H](CCCNC(=N)N)C(=O)COC(=O)c1c(C)cccc1C
assayed-target: Saccharomyces cerevisiae
label: N
--
smiles-notation: Cc1cccc(C)c1C(=O)OCC(=O)[C@H](CCCNC(=N)N)NC(=O)[C@H](Cc1ccccc1)NC(=O)OCc1ccccc1
assayed-target: Saccharomyces cerevisiae
label: Y
--
smiles-notation: CC(C)(C)OC(=O)NCCCC[C@H](NC(=O)[C@H](Cc1ccccc1)NC(=O)OCc1ccccc1)C(=O)O
assayed-target: Saccharomyces cerevisiae
label: N
--
smiles-notation: Cc1ccc(C(=O)OCC(=O)[C@H](CCCNC(=N)N)NC(=O)[C@H](Cc2ccccc2)NC(=O)OCc2ccccc2)cc1
assayed-target: Saccharomyces cerevisiae
label: Y
--
smiles-notation: COc1ccc(C(=O)OCC(=O)[C@H](C)NC(=O)[C@H](Cc2ccccc2)NC(=O)OCc2ccccc2)cc1
assayed-target: Saccharomyces cerevisiae
label: Y
--
smiles-notation: C[C@H](NC(=O)[C@H](Cc1ccccc1)NC(=O)OCc1ccccc1)C(=O)COC(=O)c1ccc([N+](=O)[O-])cc1
assayed-target: Saccharomyces cerevisiae
label: Y
--
smiles-notation: C[C@H](NC(=O)[C@H](Cc1ccccc1)NC(=O)OCc1ccccc1)C(=O)COC(=O)c1c(C(F)(F)F)cccc1C(F)(F)F
assayed-target: Saccharomyces cerevisiae
label: Y
--
smiles-notation: Cc1cc(C)c(C(=O)OCC(=O)[C@H](CCCNC(=N)N)NC(=O)[C@H](Cc2ccccc2)NC(=O)OCc2ccccc2)c(C)c1
assayed-target: Saccharomyces cerevisiae
label: Y
--
smiles-notation: N=C(N)NCCC[C@H](NC(=O)[C@H](Cc1ccccc1)NC(=O)OCc1ccccc1)C(=O)COC(=O)c1ccc([N+](=O)[O-])cc1
assayed-target: Saccharomyces cerevisiae
label: Y
--
smiles-notation: Cc1cc(C)c(C(=O)OCC(=O)[C@H](C)NC(=O)[C@H](Cc2ccccc2)NC(=O)OCc2ccccc2)c(C)c1
assayed-target: Saccharomyces cerevisiae
label: Y

###

- assayed-target: CAAX prenyl protease 2 (Saccharomyces cerevisiae S288c) (UniProt Q03530)
- protocol-text: Inhibition of Saccharomyces cerevisiae SM3614 Ras converting enzyme 1 at 100 uM after 60 mins by fluorescence based proteolysis assay
Calls of active or inactive are those of the source. The rule behind the calls is not given here.
Outcomes: active, inactive

compound: C[C@H](NC(=O)[C@H](Cc1ccccc1)NC(=O)OCc1ccccc1)C(=O)COC(=O)c1ccc([N+](=O)[O-])cc1
assayed-target: CAAX prenyl protease 2 (Saccharomyces cerevisiae S288c) (UniProt Q03530)
label: active

compound: COc1ccc(C(=O)OCC(=O)[C@H](C)NC(=O)[C@H](Cc2ccccc2)NC(=O)OCc2ccccc2)cc1
assayed-target: CAAX prenyl protease 2 (Saccharomyces cerevisiae S288c) (UniProt Q03530)
label: active

compound: CC(C)(C)OC(=O)NCCCC[C@H](NC(=O)[C@H](Cc1ccccc1)NC(=O)OCc1ccccc1)C(=O)O
assayed-target: CAAX prenyl protease 2 (Saccharomyces cerevisiae S288c) (UniProt Q03530)
label: inactive

compound: Cc1cc(C)c(C(=O)OCC(=O)[C@H](C)NC(=O)[C@H](Cc2ccccc2)NC(=O)OCc2ccccc2)c(C)c1
assayed-target: CAAX prenyl protease 2 (Saccharomyces cerevisiae S288c) (UniProt Q03530)
label: active

compound: N=C(N)NCCC[C@H](NC(=O)[C@H](Cc1ccccc1)NC(=O)OCc1ccccc1)C(=O)COC(=O)c1ccccc1
assayed-target: CAAX prenyl protease 2 (Saccharomyces cerevisiae S288c) (UniProt Q03530)
label: active

compound: Cc1cc(C)c(C(=O)OCC(=O)[C@H](CCCNC(=N)N)NC(=O)[C@H](Cc2ccccc2)NC(=O)OCc2ccccc2)c(C)c1
assayed-target: CAAX prenyl protease 2 (Saccharomyces cerevisiae S288c) (UniProt Q03530)
label: active

compound: CC(=O)NC(Cc1ccc(O)cc1)C(=O)N[C@@H](Cc1ccccc1)C(=O)NCC(=O)COC(=O)c1c(C)cccc1C (single isomer, unassigned)
assayed-target: CAAX prenyl protease 2 (Saccharomyces cerevisiae S288c) (UniProt Q03530)
label: inactive
